Assay: Quantitative High-Throughput drug screen in 47 multiple myeloma cell lines against the NCATS MIPE library collection: PE2_PLB cell viability assay (AID 1919869); further: nearly all actives have a fitted effect of over 35% in size
Settings: PE2_PLB myeloma cells viability, ATP luminescence, 48 h; series mostly up to 45.8 µM
Inconclusive results are not listed. Calls of active or inactive are those of the source. The call rests on the fitted dose curve; in most records, active means well fitted cell-killing curve with a large enough effect; inconclusive means small, poorly fitted or top-dose-only effect, or effect the other way; inactive means no such curve, though single readings can be large or run the other way.
Thanks in advance; please answer with one of these: active, inactive

Prompt: Call for entry COc1cc2nc(N3CCN(C(=O)C4CCCO4)CC3)nc(N)c2cc1OC (stereo unspecified) :
Completion: inactive

Prompt: Call for entry OC(CN1CCN(c2cccc(Cl)c2)CC1)C(c1ccccc1)c1ccccc1 (stereo unspecified) :
Completion: inactive

Prompt: Call for entry CC(C)c1ccc2oc3nc(N)c(C(=O)O)cc3c(=O)c2c1 :
Completion: inactive

Prompt: Call for entry O=C(NC(Cc1cc(=O)[nH]c2ccccc12)C(=O)O)c1ccc(Cl)cc1 (stereo unspecified) :
Completion: inactive

Prompt: Call for entry CC(C)(S)[C@@H](N)C(=O)O :
Completion: inactive

Prompt: Call for entry O=C(c1ccccc1)c1ccc2n1CCC2C(=O)O (stereo unspecified) :
Completion: active

Prompt: Call for entry CS(=O)(=O)OCCCCOS(C)(=O)=O :
Completion: inactive

Prompt: Call for entry O=C(OC1C[C@H]2CC[C@@H](C1)[N+]21CCCC1)C(O)(c1ccccc1)c1ccccc1 (stereo partly specified) :
Completion: inactive

Prompt: Call for entry O=C(O)CCNC(=O)c1ccc(N=Nc2ccc(O)c(C(=O)O)c2)cc1 :
Completion: inactive

Prompt: Call for entry O=C(CS(=O)Cc1ccco1)NCC=CCOc1cc(CN2CCCCC2)ccn1 (stereo unspecified) :
Completion: inactive

Prompt: Call for entry COc1cc2c(cc1OC)C1CC(=O)C(CC(C)C)CN1CC2 (stereo unspecified) :
Completion: inactive

Prompt: Call for entry O=C(NCCO[N+](=O)[O-])c1cccnc1 :
Completion: inactive

Prompt: Call for entry COc1cc(OC)c(C(=O)CCCN2CCCC2)c(OC)c1 :
Completion: inactive

Prompt: Call for entry COCCCOc1ccnc(CS(=O)c2nc3ccccc3[nH]2)c1C (stereo unspecified) :
Completion: inactive

Prompt: Call for entry COc1cc(Nc2c(C#N)cnc3cc(OCCCN4CCN(C)CC4)c(OC)cc23)c(Cl)cc1Cl :
Completion: active

Prompt: Call for entry O=P(O)(O)C(O)(Cn1ccnc1)P(=O)(O)O :
Completion: inactive

----------
Assay: High-throughput drug toxicity screening in the BPDCN cell line Gen2.2 (AID 1224824);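 further: cells exposed to compounds for 48 h before reading; 100% = DMSO and 0% = bortezomib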
Details: Gen2.2 BPDCN cells; at 45.8 µM (top of the series) unless noted
Mark each entry 1 if its cell viability, % of control (lower = more cytotoxic) sits below 70%, and 0 for all others.

Prompt: In plain terms, does O=C(CS(=O)Cc1ccco1)NCC=CCOc1cc(CN2CCCCC2)ccn1 (centres undefined) come in under 70% for cell viability, % of control (lower = more cytotoxic)?
Completion: 0

Prompt: In plain terms, does CC(C)[C@H](N)C(=O)OCCOCn1cnc2c(=O)[nH]c(N)nc21 come in under 70% for cell viability, % of control (lower = more cytotoxic)?
Completion: 1

Prompt: In plain terms, does OC(CN1CCN(c2cccc(Cl)c2)CC1)C(c1ccccc1)c1ccccc1 (centres undefined) come in under 70% for cell viability, % of control (lower = more cytotoxic)?
Completion: 0

Prompt: In plain terms, does CCCOc1ccc2nc(NC(=O)OC)[nH]c2c1 come in under 70% for cell viability, % of control (lower = more cytotoxic)?
Completion: 0

Prompt: In plain terms, does Cc1cc(Cl)ccc1OCCCC(=O)NO come in under 70% for cell viability, % of control (lower = more cytotoxic)?
Completion: 1

Prompt: In plain terms, does Oc1ccc(-c2nc(-c3ccc(F)cc3)c(-c3ccncc3)[nH]2)cc1 come in under 70% for cell viability, % of control (lower = more cytotoxic)?
Completion: 0

Prompt: In plain terms, does CC(=O)O[C@H]1C(=O)[C@@]2(C)C([C@H](OC(=O)c3ccccc3)[C@]3(O)C[C@H](OC(=O)[C@H](O)[C@@H](NC(=O)c4ccccc4)c4ccccc4)C(C)=C1C3(C)C)[C@]1(OC(C)=O)CO[C@@H]1C[C@@H]2O (some centres undefined) come in under 70% for cell viability, % of control (lower = more cytotoxic)?
Completion: 1

Prompt: In plain terms, does N=C(N)c1ccc2cc(OC(=O)c3ccc(N=C(N)N)cc3)ccc2c1 come in under 70% for cell viability, % of control (lower = more cytotoxic)?
Completion: 0

Prompt: In plain terms, does Cc1nc(Nc2ncc(C(=O)Nc3c(C)cccc3Cl)s2)cc(N2CCN(CCO)CC2)n1 come in under 70% for cell viability, % of control (lower = more cytotoxic)?
Completion: 0

Prompt: In plain terms, does CCC(C)(Oc1ccc(C2(c3ccc(OC(C)(CC)C(=O)O)cc3)CCCCC2)cc1)C(=O)O (centres undefined) come in under 70% for cell viability, % of control (lower = more cytotoxic)?
Completion: 0

Prompt: In plain terms, does Cc1cc(=O)c2c(O)c3c(O)cc(=O)c4c3c3c(cc(O)c1c23)C(C)(C)C=4O come in under 70% for cell viability, % of control (lower = more cytotoxic)?
Completion: 0

Prompt: In plain terms, does COc1ccc(C2(C#N)CCC(C(=O)O)CC2)cc1OC1CCCC1 (centres undefined) come in under 70% for cell viability, % of control (lower = more cytotoxic)?
Completion: 0

Prompt: In plain terms, does NNc1nncc2ccccc12 come in under 70% for cell viability, % of control (lower = more cytotoxic)?
Completion: 0

Prompt: In plain terms, does CC(C)[N+]1(C)[C@@H]2CC[C@H]1CC(OC(=O)C(CO)c1ccccc1)C2 (some centres undefined) come in under 70% for cell viability, % of control (lower = more cytotoxic)?
Completion: 1

Prompt: In plain terms, does Cc1cc2cc3c(C)cc(=O)oc3c(C)c2o1 come in under 70% for cell viability, % of control (lower = more cytotoxic)?
Completion: 1

Prompt: In plain terms, does COC(=O)C1=C(C)NC(C)=C(C(=O)OCCCN2CCC(c3ccccc3)(c3ccccc3)CC2)C1c1cccc([N+](=O)[O-])c1 (centres undefined) come in under 70% for cell viability, % of control (lower = more cytotoxic)?
Completion: 0

Prompt: In plain terms, does Oc1ccc2ccccc2c1SSc1c(O)ccc2ccccc12 come in under 70% for cell viability, % of control (lower = more cytotoxic)?
Completion: 1

Prompt: In plain terms, does Cc1c(OCC(F)(F)F)ccnc1CS(=O)c1nc2ccccc2[nH]1 (centres undefined) come in under 70% for cell viability, % of control (lower = more cytotoxic)?
Completion: 0
